system: HOP-62 complex spheroids with HUVEC/MSC, viability; experiment: Anticancer human tumor HOP-62 cell line growth inhibition [RAS]; settings: curve of first compound; second compound 0.003 µM;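 also: spheroids exposed to agents for seven days before readout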
Measured attribute: IC50 (nM)
Just the number please, in nM, no unit attached.

Lab note: measured IC50 of NC1c2ccccc2OC12CCN(c1cnc3c(N4CCCc5ncccc54)n[nH]c3n1)CC2 (configuration not stated) + CCn1c(-c2cccnc2C(C)OC)c2c3cc(ccc31)N1CCOC(CC(NC(=O)C(C(C)C)N(C)C(=O)C3(F)CCN(C(=O)C#CC(C)(C)N(C)C)CC3)C(=O)N3CCCC(N3)C(=O)OCC(C)(C)C2)C1 was 429

Lab note: measured IC50 of CC(C)n1nc(-c2ccc3oc(N)nc3c2)c2c(N)ncnc21 + CCn1c(-c2cccnc2C(C)OC)c2c3cc(ccc31)N1CCOC(CC(NC(=O)C(C(C)C)N(C)C(=O)C3(F)CCN(C(=O)C#CC(C)(C)N(C)C)CC3)C(=O)N3CCCC(N3)C(=O)OCC(C)(C)C2)C1 was 11.8

Lab note: measured IC50 of CC(C)n1nc(-c2ccc3oc(N)nc3c2)c2c(N)ncnc21 + CCn1c(-c2cc(N3CCN(C)CC3)cnc2C(C)OC)c2c3cc(ccc31)-c1csc(n1)CC(NC(=O)C1CC1C)C(=O)N1CCCC(N1)C(=O)OCC(C)(C)C2 was 15.3

Lab note: measured IC50 of CC1(O)CCCC1n1c(=O)c(C(F)F)cc2cnc(NC3CCN(S(C)(=O)=O)CC3)nc21 (configuration not stated) + CCn1c(-c2cccnc2C(C)OC)c2c3cc(ccc31)N1CCOC(CC(NC(=O)C(C(C)C)N(C)C(=O)C3(F)CCN(C(=O)C#CC(C)(C)N(C)C)CC3)C(=O)N3CCCC(N3)C(=O)OCC(C)(C)C2)C1 was 4470

Lab note: measured IC50 of Nc1ccn(C2OC(CO)C(O)C2(F)F)c(=O)n1 (configuration not stated) + CCn1c(-c2cccnc2C(C)OC)c2c3cc(ccc31)N1CCOC(CC(NC(=O)C(C(C)C)N(C)C(=O)C3(F)CCN(C(=O)C#CC(C)(C)N(C)C)CC3)C(=O)N3CCCC(N3)C(=O)OCC(C)(C)C2)C1 was 9.19

Lab note: measured IC50 of Cc1nc(N2CCC3(CC2)COC(C)C3N)c(CO)nc1Sc1ccnc(N)c1Cl (configuration not stated) + CCn1c(-c2cc(N3CCN(C)CC3)cnc2C(C)OC)c2c3cc(ccc31)-c1csc(n1)CC(NC(=O)C1CC1C)C(=O)N1CCCC(N1)C(=O)OCC(C)(C)C2 was 439

---

test system: HOP-62 complex spheroids with HUVEC/MSC, viability; assay: Anticancer human tumor HOP-62 cell line growth inhibition [RAS]; conditions: second compound 0.1 µM; first compound 0.1 µM; stronger effect = lower value;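 also: spheroids exposed to agents for seven days before readout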;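 as to viability, T/C: 100% = DMSO vehicle control viability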
Measured attribute: viability, T/C (%)
Just the number please, in %, no unit attached.

Lab note: measured viability, T/C of Cc1nc(N2CCC3(CC2)COC(C)C3N)c(CO)nc1Sc1ccnc(N)c1Cl (stereo unspecified) + C#Cc1c(F)ccc2cc(O)cc(-c3ncc4c(N5CC6CCC(C5)N6)nc(OCC56CCCN5CC(F)C6)nc4c3F)c12 was 97.7

Lab note: measured viability, T/C of CC1(O)CCCC1n1c(=O)c(C(F)F)cc2cnc(NC3CCN(S(C)(=O)=O)CC3)nc21 (stereo unspecified) + C#Cc1c(F)ccc2cc(O)cc(-c3ncc4c(N5CC6CCC(C5)N6)nc(OCC56CCCN5CC(F)C6)nc4c3F)c12 was 52.2

Lab note: measured viability, T/C of C=CC(=O)Nc1cc(Nc2nccc(-c3cn(C)c4ccccc34)n2)c(OC)cc1N(C)CCN(C)C + C=CC(=O)N1CCN(c2nc(OCC3CCCN3C)nc3c(F)c(-c4nc(N)cc(C)c4C(F)(F)F)c(Cl)cc23)C(C)C1 was 56.4

Lab note: measured viability, T/C of CC(C)NCC(C(=O)N1CCN(c2ncnc3c2C(C)CC3O)CC1)c1ccc(Cl)cc1 (stereo unspecified) + C#Cc1c(F)ccc2cc(O)cc(-c3ncc4c(N5CC6CCC(C5)N6)nc(OCC56CCCN5CC(F)C6)nc4c3F)c12 was 105

Lab note: measured viability, T/C of C=CC(=O)Nc1cc(Nc2nccc(-c3cn(C)c4ccccc34)n2)c(OC)cc1N(C)CCN(C)C + C#Cc1c(F)ccc2cc(O)cc(-c3ncc4c(N5CC6CCC(C5)N6)nc(OCC56CCCN5CC(F)C6)nc4c3F)c12 was 100

Lab note: measured viability, T/C of C[C@@H](NC(=O)c1ncnc(N)c1Cl)c1ncc(C(=O)Nc2cc(C(F)(F)F)c(Cl)cn2)s1 + C#Cc1c(F)ccc2cc(O)cc(-c3ncc4c(N5CC6CCC(C5)N6)nc(OCC56CCCN5CC(F)C6)nc4c3F)c12 was 113

---

system: HOP-62 complex spheroids with HUVEC/MSC, viability; test: Anticancer human tumor HOP-62 cell line growth inhibition [RAS]; conditions: second compound 0.1 µM; first compound 0.316 µM; stronger effect = lower value;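 also: spheroids exposed to agents for seven days before readout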;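 as to viability, T/C: 100% = DMSO vehicle control viability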
Could you please report measured viability, T/C for the items listed next?
Just the number please, in %, no unit attached.

Lab note: measured viability, T/C of CC1(O)CCCC1n1c(=O)c(C(F)F)cc2cnc(NC3CCN(S(C)(=O)=O)CC3)nc21 (stereo not given) + C=CC(=O)N1CCN(c2nc(OCC3CCCN3C)nc3c(F)c(-c4nc(N)cc(C)c4C(F)(F)F)c(Cl)cc23)C(C)C1 was 30.1

Lab note: measured viability, T/C of CCN1CCN(Cc2ccc(Nc3ncc(F)c(-c4cc(F)c5nc(C)n(C(C)C)c5c4)n3)nc2)CC1 + C#Cc1c(F)ccc2cc(O)cc(-c3ncc4c(N5CC6CCC(C5)N6)nc(OCC56CCCN5CC(F)C6)nc4c3F)c12 was 89.3

Lab note: measured viability, T/C of CC(=O)OC12COC1CC(O)C1(C)C(=O)C(O)C3=C(C)C(OC(=O)C(O)C(NC(=O)OC(C)(C)C)c4ccccc4)CC(O)(C(OC(=O)c4ccccc4)C21)C3(C)C (stereo not given) + C=CC(=O)N1CCN(c2nc(OCC3CCCN3C)nc3c(F)c(-c4nc(N)cc(C)c4C(F)(F)F)c(Cl)cc23)C(C)C1 was 11.9

Lab note: measured viability, T/C of CC1(O)CCCC1n1c(=O)c(C(F)F)cc2cnc(NC3CCN(S(C)(=O)=O)CC3)nc21 (stereo not given) + C#Cc1c(F)ccc2cc(O)cc(-c3ncc4c(N5CC6CCC(C5)N6)nc(OCC56CCCN5CC(F)C6)nc4c3F)c12 was 45.3

Lab note: measured viability, T/C of CC(Nc1ccc2c(c1)OCCn1cc(N3C(=O)OCC3C(F)F)nc1-2)C(N)=O (stereo not given) + C#Cc1c(F)ccc2cc(O)cc(-c3ncc4c(N5CC6CCC(C5)N6)nc(OCC56CCCN5CC(F)C6)nc4c3F)c12 was 57

---

tested on: HOP-62 complex spheroids with HUVEC/MSC, viability; test: Anticancer human tumor HOP-62 cell line growth inhibition [RAS]; conditions: second compound 0.316 µM; first compound 3.16 µM; stronger effect = lower value;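 also: spheroids exposed to agents for seven days before readout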;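 as to viability, T/C: 100% = DMSO vehicle control viability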
Measured attribute: viability, T/C (%)
Just the number please, in %, no unit attached.

Lab note: measured viability, T/C of NC1c2ccccc2OC12CCN(c1cnc3c(N4CCCc5ncccc54)n[nH]c3n1)CC2 (stereo unspecified) + C#Cc1c(F)ccc2cc(O)cc(-c3ncc4c(N5CC6CCC(C5)N6)nc(OCC56CCCN5CC(F)C6)nc4c3F)c12 was 22.3

Lab note: measured viability, T/C of C[C@@H](NC(=O)c1ncnc(N)c1Cl)c1ncc(C(=O)Nc2cc(C(F)(F)F)c(Cl)cn2)s1 + C=CC(=O)N1CCN(c2nc(OCC3CCCN3C)nc3c(F)c(-c4nc(N)cc(C)c4C(F)(F)F)c(Cl)cc23)C(C)C1 was 57.7

Lab note: measured viability, T/C of CC(Nc1ccc2c(c1)OCCn1cc(N3C(=O)OCC3C(F)F)nc1-2)C(N)=O (stereo unspecified) + C#Cc1c(F)ccc2cc(O)cc(-c3ncc4c(N5CC6CCC(C5)N6)nc(OCC56CCCN5CC(F)C6)nc4c3F)c12 was 41.3

Lab note: measured viability, T/C of CC(=O)OC12COC1CC(O)C1(C)C(=O)C(O)C3=C(C)C(OC(=O)C(O)C(NC(=O)OC(C)(C)C)c4ccccc4)CC(O)(C(OC(=O)c4ccccc4)C21)C3(C)C (stereo unspecified) + C=CC(=O)N1CCN(c2nc(OCC3CCCN3C)nc3c(F)c(-c4nc(N)cc(C)c4C(F)(F)F)c(Cl)cc23)C(C)C1 was 14.8

Lab note: measured viability, T/C of Cc1nc(N2CCC3(CC2)COC(C)C3N)c(CO)nc1Sc1ccnc(N)c1Cl (stereo unspecified) + C#Cc1c(F)ccc2cc(O)cc(-c3ncc4c(N5CC6CCC(C5)N6)nc(OCC56CCCN5CC(F)C6)nc4c3F)c12 was 51.1

Lab note: measured viability, T/C of CC(=O)OC12COC1CC(O)C1(C)C(=O)C(O)C3=C(C)C(OC(=O)C(O)C(NC(=O)OC(C)(C)C)c4ccccc4)CC(O)(C(OC(=O)c4ccccc4)C21)C3(C)C (stereo unspecified) + C#Cc1c(F)ccc2cc(O)cc(-c3ncc4c(N5CC6CCC(C5)N6)nc(OCC56CCCN5CC(F)C6)nc4c3F)c12 was 18.4
